# measurement-target: Recombinant human soluble guanylate cyclase (sGC), alpha 1 / beta 1 subunits, heme-free (Homo sapiens, UniProt Q02108+Q02153)
# Construct: histidine tag (C); made in house; host or cells: Sf9 insect cells (baculovirus coinfection)
# Sequence (Q02108 whole entry partner): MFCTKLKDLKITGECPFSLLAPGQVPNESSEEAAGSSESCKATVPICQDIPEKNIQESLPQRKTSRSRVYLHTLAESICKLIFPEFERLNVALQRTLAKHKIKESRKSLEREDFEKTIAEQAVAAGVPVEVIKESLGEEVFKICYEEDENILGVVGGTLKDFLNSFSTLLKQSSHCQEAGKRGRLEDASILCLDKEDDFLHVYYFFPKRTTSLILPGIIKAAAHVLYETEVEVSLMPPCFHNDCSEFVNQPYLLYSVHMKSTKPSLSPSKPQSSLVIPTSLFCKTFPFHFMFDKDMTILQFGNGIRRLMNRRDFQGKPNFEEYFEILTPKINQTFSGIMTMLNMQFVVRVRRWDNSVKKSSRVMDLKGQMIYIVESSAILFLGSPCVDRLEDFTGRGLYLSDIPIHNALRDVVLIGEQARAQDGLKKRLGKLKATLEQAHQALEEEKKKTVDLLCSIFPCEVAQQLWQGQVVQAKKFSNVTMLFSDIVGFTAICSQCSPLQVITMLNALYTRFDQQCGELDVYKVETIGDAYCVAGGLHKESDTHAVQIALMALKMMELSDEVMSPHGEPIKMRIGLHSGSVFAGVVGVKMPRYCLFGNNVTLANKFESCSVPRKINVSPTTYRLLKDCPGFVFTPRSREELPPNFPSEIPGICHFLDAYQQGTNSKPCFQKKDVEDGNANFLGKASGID
# Sequence (Q02153 whole entry): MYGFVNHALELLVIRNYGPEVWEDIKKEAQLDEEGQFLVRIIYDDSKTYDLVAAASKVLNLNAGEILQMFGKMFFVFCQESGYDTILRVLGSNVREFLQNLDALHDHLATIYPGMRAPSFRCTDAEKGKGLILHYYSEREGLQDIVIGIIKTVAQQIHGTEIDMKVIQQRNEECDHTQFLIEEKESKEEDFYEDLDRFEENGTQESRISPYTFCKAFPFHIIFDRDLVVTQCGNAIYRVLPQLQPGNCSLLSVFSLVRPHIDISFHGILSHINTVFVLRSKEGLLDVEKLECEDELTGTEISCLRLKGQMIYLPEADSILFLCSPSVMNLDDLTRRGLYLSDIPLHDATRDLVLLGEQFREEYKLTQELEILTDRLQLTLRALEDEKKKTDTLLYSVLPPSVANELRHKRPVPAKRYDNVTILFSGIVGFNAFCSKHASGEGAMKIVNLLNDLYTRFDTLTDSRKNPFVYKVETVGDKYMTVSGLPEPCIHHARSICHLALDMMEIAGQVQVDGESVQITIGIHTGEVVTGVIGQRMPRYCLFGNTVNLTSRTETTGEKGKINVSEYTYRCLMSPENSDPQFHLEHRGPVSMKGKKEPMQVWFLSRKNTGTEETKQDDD
# experimental-details: Molecular assay: cGMP formation by heme-free recombinant sGC (CisBio cGMP detection kit)
# Assay type: biochemical
# test-context: 300 pM heme-free sGC, 37° C., 60 min, cGMP readout; read-out: EC50 nM, Activity of Compounds in Molecular Assay
# Description: Recombinant human soluble guanylate cyclase (sGC) is purified from Sf9 insect cells coinfected with baculoviruses expressing the alpha 1 or beta 1 subunit of sGC, both with a C-terminal histidine tag. […] sGC catalyzes the conversion of guanosine-5′-triphosphate (GTP) to cyclic guanosine monophosphate (cGMP). The activity of sGC is measured in vitro using the commercially available CisBio cGMP detection kit (catalog # 62GM2PEB) in a 384 well format. […]
Hi! Just check whether EC50 is below 100 nM. Below gives yes, equal or above gives no.

compound	class-name
Cc1ccc(OCc2ccc(CN3CCOCC3)cc2C#N)c(-c2csc(N3CC[C@@H](C(=O)O)[C@@H](C)C3)n2)c1 (relative stereo) [Compound 69]	yes
Cc1cc(CN2CCOCC2)ccc1COc1c(C)cccc1-c1csc(N2C[C@H]3CC[C@@H](C2)[C@H]3C(=O)O)n1 [Compound 206]	no
Cc1cc(C(=O)N2CCCCC2)ccc1COc1ccc(C#N)cc1-c1csc(N2CCC(C(=O)O)CC2C)n1 (stereo not shown) [Compound 85]	no
Cc1cc(CN2CCS(=O)(=O)CC2)ccc1COc1ccc(C#N)cc1-c1csc(N2CC3CCC(C2)C3C(=O)O)n1 (stereo not shown) [Compound 146]	no
Cc1cc(CN2CCS(=O)(=O)CC2)ccc1COc1ccc(F)cc1-c1csc(N2CCC(C(=O)O)C(C)C2)n1 (stereo not shown) [Compound 129]	yes

Does this compound meet the criterion EC50 < 100 nM? Cc1ccc(OCc2ccc(CN3CCOCC3)cc2C)c(-c2csc(N3CC4C(C3)C4C(=O)O)n2)c1 (stereo not shown) [Compound 14]
no

Does this compound meet the criterion EC50 < 100 nM? Cc1cc(C(=O)N2CCCCC2)ccc1COc1ccc(C#N)cc1-c1csc(C2=CCC(C(=O)O)CC2)n1 (stereo not shown) [Compound 184]
no

Does this compound meet the criterion EC50 < 100 nM? Cc1cc(C(=O)N2CCCCC2)ccc1COc1ccc(C#N)cc1-c1csc(N2C3CCC2CC(C(=O)O)C3)n1 (stereo not shown) [Compound 109]
no

Does this compound meet the criterion EC50 < 100 nM? Cc1ccc(OCc2ccc(C(=O)N(C)CC3CCCCC3)cc2C#N)c(-c2csc(N3CCC(C(=O)O)CC3)n2)c1 [Compound 125]
yes

Does this compound meet the criterion EC50 < 100 nM? Cc1ccc(OCc2ccc(CN3CCOCC3)cc2C)c(-c2csc(N3CC[C@H](C(=O)O)[C@H](C)C3)n2)c1 [Compound 176]
no

Does this compound meet the criterion EC50 < 100 nM? Cc1cc(CN2CCOCC2)ccc1COc1ccccc1-c1csc(N2CCC(C(=O)O)C(C(F)(F)F)C2)n1 (stereo not shown) [Compound 185]
no

Does this compound meet the criterion EC50 < 100 nM? Cc1ccc(OCc2ccc(C(=O)N3CCC(O)CC3)cc2C#N)c(-c2csc(N3CCC(C(=O)O)CC3)n2)c1 [Compound 90]
no

Does this compound meet the criterion EC50 < 100 nM? Cc1ccc(OCc2ccc(CN3CCN(S(=O)(=O)N(C)C)CC3)cc2C)c(-c2csc(N3CCC(C(=O)O)CC3)n2)c1 [Compound 200]
yes

Does this compound meet the criterion EC50 < 100 nM? Cc1ccc(OCc2ccc(CN3CCS(=O)(=O)CC3)cc2C)c(-c2csc(N3C[C@H]4C[C@@H](C3)[C@H]4C(=O)O)n2)c1 [Compound 235]
yes

Does this compound meet the criterion EC50 < 100 nM? Cc1ccc(OCc2ccc(CN3CCOCC3)cc2C)c(-c2csc(N(C)CCCC(=O)O)n2)c1 [Compound 179]
no

Does this compound meet the criterion EC50 < 100 nM? Cc1cc(CN2CCOCC2)ccc1COc1c(-c2csc(N3CCC(C(=O)O)CC3)n2)cccc1C(F)(F)F [Compound 113]
yes

Does this compound meet the criterion EC50 < 100 nM? Cc1cc(CN2CCS(=O)(=O)CC2)ccc1COc1ccccc1-c1csc(N2CC3CCC(C2)C3C(=O)O)n1 (stereo not shown) [Compound 121]
no

Does this compound meet the criterion EC50 < 100 nM? Cc1cc(C(=O)N2CCCCC2)ccc1COc1ccc(Cl)cc1-c1csc(N2CCC(C(=O)O)CC2)n1 [Compound 271]
yes
